From: patent US20110046102A1

Please go through the items and note down their IC50.
# system_tested: E. cloacae P99 β-lactamase (Enterobacter cloacae)
# Construct: The β-lactamases are isolated from bacterial strains resistant to penicillins and cephalosporins; endogenous in cells
# Sequence (P05364 21-381): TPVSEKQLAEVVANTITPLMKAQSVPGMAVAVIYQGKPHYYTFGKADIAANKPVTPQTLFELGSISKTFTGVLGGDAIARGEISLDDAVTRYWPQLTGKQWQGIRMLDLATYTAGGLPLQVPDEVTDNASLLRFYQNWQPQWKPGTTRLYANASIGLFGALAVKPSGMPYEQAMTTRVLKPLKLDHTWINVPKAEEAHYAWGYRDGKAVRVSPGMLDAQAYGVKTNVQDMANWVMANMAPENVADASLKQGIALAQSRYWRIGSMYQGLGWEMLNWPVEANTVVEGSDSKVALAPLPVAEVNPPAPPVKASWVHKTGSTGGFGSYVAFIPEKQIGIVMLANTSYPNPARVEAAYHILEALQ
# experiment_notes: β-lactamase inhibiting activity on isolated enzyme (Nitrocefin hydrolysis), P99
# condition_summary: 5 min pre-incubation, 100 μM Nitrocefin, pH 7.0, 37° C., mean of at least 2 experiments, read-out: IC50 enzyme inhibition
Quick note: give the figure in µM, leave out the unit.

Need IC50 of NC(=O)[C@@H]1CC[C@@H]2CN1C(=O)N2OCC(=O)O [Example 1, reference compound] , thanks. 54

Need IC50 of NC(=O)[C@@H]1CC[C@@H]2CN1C(=O)N2OC(F)C(=O)O (mixture of isomers) [Example 2] , thanks. 4.6

Need IC50 of NC(=O)[C@@H]1CC[C@@H]2CN1C(=O)N2OC(F)(F)C(=O)O [Example 3] , thanks. 2.2
